Here we list compounds with their recorded IC50 when tested on NAMPT (Homo sapiens, UniProt P43490).
Sequence (P43490 whole entry): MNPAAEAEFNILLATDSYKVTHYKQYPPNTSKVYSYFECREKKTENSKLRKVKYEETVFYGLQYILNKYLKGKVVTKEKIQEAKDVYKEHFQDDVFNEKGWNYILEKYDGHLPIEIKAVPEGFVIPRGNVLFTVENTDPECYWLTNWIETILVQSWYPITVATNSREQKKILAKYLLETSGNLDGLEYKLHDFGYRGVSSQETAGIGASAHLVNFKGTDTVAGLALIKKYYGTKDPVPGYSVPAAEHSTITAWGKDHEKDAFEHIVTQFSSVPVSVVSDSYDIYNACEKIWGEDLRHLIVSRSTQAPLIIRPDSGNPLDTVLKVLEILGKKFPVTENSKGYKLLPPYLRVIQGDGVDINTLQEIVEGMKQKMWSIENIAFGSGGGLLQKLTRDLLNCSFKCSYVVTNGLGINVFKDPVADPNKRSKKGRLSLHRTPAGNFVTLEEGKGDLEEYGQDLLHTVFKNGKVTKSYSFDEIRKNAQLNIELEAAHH
Hi! Could you send only the number? It should be in nM, unit omitted.

The examples below pair each entry with its known result.
Compound | Target or test system | Unit name | IC50
O=C(NCc1ccn2ccnc2c1)c1ccc(C2CCN(C(=O)c3ccco3)CC2)cc1 | NAMPT (Homo sapiens, UniProt P43490) | nM | 0.19
CCC(C)CC(=O)N1CC(c2ccc(C(=O)NCc3ccn4ccnc4c3)cc2)C1 (stereo not shown) | NAMPT (Homo sapiens, UniProt P43490) | nM | 0.563
O=C(NCc1ccn2ccnc2c1)Nc1ncc(C(=O)N2CCCCC2)s1 | NAMPT (Homo sapiens, UniProt P43490) | nM | 0.88
O=C(NCc1ccn2ccnc2c1)Nc1ccc(-c2cnn(CC3CCOCC3)c2)cc1 | NAMPT (Homo sapiens, UniProt P43490) | nM | 2.07
CCC(C)(C)C(=O)N1CC(c2ccc(C(=O)NCc3ccn4ccnc4c3)cc2)C1 | NAMPT (Homo sapiens, UniProt P43490) | nM | 0.672
COc1cccc(C(=O)N2CCC(c3ccc(C(=O)NCc4ccn5ccnc5c4)cc3)C2)c1 (stereo not shown) | NAMPT (Homo sapiens, UniProt P43490) | nM | 0.843
CC(=O)N1CC(Oc2ccc(NC(=O)NCc3ccn4ccnc4c3)cc2)C1 | NAMPT (Homo sapiens, UniProt P43490) | nM | 0.494
O=C(CCc1ccccc1)Nc1ccc(NC(=O)NCc2ccc3nccn3c2)cc1 | NAMPT (Homo sapiens, UniProt P43490) | nM | 0.437

Field IC50 (NAMPT (Homo sapiens, UniProt P43490)), entry CC(C)C[C@@H](NC(=O)C1CC1)c1ccc(C(=O)NCc2ccn3ccnc3c2)s1 : 1.36

Field IC50 (NAMPT (Homo sapiens, UniProt P43490)), entry Cc1ccc(C(=O)N2CC(c3ccc(C(=O)NCc4ccn5ccnc5c4)cc3)C2)cc1 : 1.11

Field IC50 (NAMPT (Homo sapiens, UniProt P43490)), entry O=C(NCc1ccn2ccnc2c1)Nc1ccc(C2CN(C(=O)CC3CCOCC3)C2)cc1 : 0.169

Field IC50 (NAMPT (Homo sapiens, UniProt P43490)), entry CC(C)[C@@H]1COC(=O)N1c1ccc(C(=O)NCc2ccn3ccnc3c2)s1 : 0.23

Field IC50 (NAMPT (Homo sapiens, UniProt P43490)), entry O=C(NCc1ccn2ccnc2c1)c1ccc(OC2CN(C(=O)c3ccccc3)C2)cc1 : 0.335

Field IC50 (NAMPT (Homo sapiens, UniProt P43490)), entry CC(C)C(=O)N1CC=C(c2ncc(C(=O)NCc3ccn4ccnc4c3)s2)CC1 : 0.208

Field IC50 (NAMPT (Homo sapiens, UniProt P43490)), entry O=C(NCc1ccn2ccnc2c1)c1ccc(N2C[C@@H](O)CC2=O)s1 : 0.169

Field IC50 (NAMPT (Homo sapiens, UniProt P43490)), entry O=C(NCc1ccc2nccn2c1)c1ccc(-c2cnn(CC3CCCCC3)c2)s1 : 0.445

Field IC50 (NAMPT (Homo sapiens, UniProt P43490)), entry O=C(NCc1ccc2nccn2c1)c1ccc(C2=CCN(C(=O)CC3CCOC3)CC2)cc1 (stereo not shown) : 0.593

Field IC50 (NAMPT (Homo sapiens, UniProt P43490)), entry O=C(NCc1ccn2ccnc2c1)Nc1ccc(C2CCN(C(=O)CC(F)(F)F)CC2)cc1 : 0.689

Field IC50 (NAMPT (Homo sapiens, UniProt P43490)), entry CCCC(=O)N1CC[C@H](Oc2ccc(C(=O)NCc3ccn4ccnc4c3)cc2)C1 : 0.795

Field IC50 (NAMPT (Homo sapiens, UniProt P43490)), entry O=C(NCc1ccn2ccnc2c1)c1ccc(OC2CCN(C(=O)[C@H]3CCCO3)CC2)cc1 : 0.233

Field IC50 (NAMPT (Homo sapiens, UniProt P43490)), entry CC(C)C(=O)N1CCC(c2ccc(C(=O)NCc3ccn4ccnc4c3)cc2)CC1 : 0.771

Field IC50 (NAMPT (Homo sapiens, UniProt P43490)), entry O=C(NCc1ccn2ccnc2c1)c1ccc(C2CCN(S(=O)(=O)c3ccccc3)C2)cc1 (stereo not shown) : 0.71

Field IC50 (NAMPT (Homo sapiens, UniProt P43490)), entry O=C(Nc1ccc(C2CCN(C(=O)CC3CCOC3)CC2)cc1)Nc1ccc2nccn2c1 (stereo not shown) : 0.174

Field IC50 (NAMPT (Homo sapiens, UniProt P43490)), entry O=C(NCc1ccc2ncnn2c1)c1ccc(-c2cnn(CC3COCCO3)c2)s1 (stereo not shown) : 6.98

Field IC50 (NAMPT (Homo sapiens, UniProt P43490)), entry CC(C)C(=O)N1CC=C(c2ccc(C(=O)NCc3ccc4nccn4c3)cc2)CC1 : 0.63

Field IC50 (NAMPT (Homo sapiens, UniProt P43490)), entry CC(C)OCC(=O)N1CCC(c2ccc(C(=O)NCc3ccn4ccnc4c3)cc2)C1 (stereo not shown) : 0.298

Field IC50 (NAMPT (Homo sapiens, UniProt P43490)), entry O=C(NCc1ccn2ccnc2c1)c1ccc(C2CCN(C(=O)C3CCCCC3)C2)cc1 (stereo not shown) : 0.762

Field IC50 (NAMPT (Homo sapiens, UniProt P43490)), entry CN1CCC(C(=O)N2CC=C(c3ccc(NC(=O)Nc4ccc5nccn5c4)cc3)CC2)CC1 : 0.444

Field IC50 (NAMPT (Homo sapiens, UniProt P43490)), entry O=C(NCc1ccn2ccnc2c1)c1ccc(C2CCN(C(=O)c3cc(F)cc(F)c3)C2)s1 (stereo not shown) : 0.672

Field IC50 (NAMPT (Homo sapiens, UniProt P43490)), entry CC1(Cn2cc(-c3ccc(C(=O)NCc4ccc5nccn5c4)s3)cn2)COC1 : 0.169

Field IC50 (NAMPT (Homo sapiens, UniProt P43490)), entry O=C(NCc1ccn2ccnc2c1)c1ccc(C2CCN(C(=O)c3ccccc3C(F)(F)F)CC2)cc1 : 0.9

Field IC50 (NAMPT (Homo sapiens, UniProt P43490)), entry O=C(NCc1ccn2ccnc2c1)c1ccc(C2CCN(C(=O)CC3CCOCC3)C2)cc1 (stereo not shown) : 0.169

Field IC50 (NAMPT (Homo sapiens, UniProt P43490)), entry CC(C)S(=O)(=O)N1CCC(c2ccc(C(=O)NCc3ccn4ccnc4c3)cc2)C1 (stereo not shown) : 0.504

Field IC50 (NAMPT (Homo sapiens, UniProt P43490)), entry CC(=O)N1CCC(c2ccc(C(=O)NCc3ccn4ccnc4c3)cc2)CC1 : 0.36

Values compiled from patent US9187472B2.
